# Experiment: Human HepG2 cell viability assay in 384 well format
# Type: toxicity, cell-based
# Parameters: dose 125 nL, time 70.5 hour; concentration not given beside the values
# Study Conditions: HepG2 cells, read-out: Inhibition
Parameter Measured: cytotoxicity at 70.5 h (%)
State just the number; it will be interpreted in %.

{"columns": ["Compound", "U", "cytotoxicity at 70.5 h"],
 "data": [
  ["CCNC(=O)Cc1ccc(NC(=O)NC(CC)CC)cc1", "%", 1.05],
  ["CCc1c(C)nc2n(c1=O)CC(C(=O)Nc1nc3c(s1)CCCC3)CS2 (configuration not stated)", "%", 12.5],
  ["CC(C)CN1CCN(C(=O)c2ccn(C)c(=O)c2)CC1", "%", -9.05]
]}

Next:
## Task Fill blank: measured cytotoxicity at 70.5 h of the compound CCOc1ccc(C(=O)CC(SC2CCCCC2)C(=O)O)cc1 (configuration not stated) is ____.
## Result -6.29

----------
# Experiment: Human HepG2 cell viability assay in 384 well format
# Format: toxicity, cell-based
# Parameters: dose 125 nL, time 70.5 hour; concentration not given beside the values
# Study Conditions: HepG2 cells, read-out: Inhibition
Parameter Measured: cytotoxicity at 70.5 h (%)
State just the number; it will be interpreted in %.

{"columns": ["Molecule", "cytotoxicity at 70.5 h [%]"],
 "data": [
  ["c1cc2c(cc1CN1CC[C@H]3CO[C@H](CN4CCCC4)[C@H]3C1)OCO2", -1.72],
  ["Cn1nnnc1SCC1Cc2ccccc2O1 (stereo unspecified)", 26.1],
  ["COc1nn(C)c2c1CCCN(S(=O)(=O)c1ccccc1F)C2", -1.52],
  ["Cc1ncoc1C(=O)N1C[C@H]2CCC[C@@]2(COCc2cccnc2)C1", 3.21],
  ["Cn1cc(CN2CCCC23CCN(C(=O)c2ccncc2)CC3)cn1", 20.3]
]}

Next:
## Task Fill blank: measured cytotoxicity at 70.5 h of the molecule CN(C(=O)c1ccccc1NCC(=O)O)C(C1CC1)C1CC1 is ____.
## Result -10.9

----------
# Experiment: Human HepG2 cell viability assay in 384 well format
# Assay type: toxicity, cell-based
# Parameters: dose 125 nL, time 70.5 hour; concentration not given beside the values
# Study Conditions: HepG2 cells, read-out: Inhibition
Parameter Measured: cytotoxicity at 70.5 h (%)
State just the number; it will be interpreted in %.

## Task Fill blank: measured cytotoxicity at 70.5 h of the molecule Cc1cnn(CCNCc2ccc(F)cc2Cl)c1 is ____.
## Result -10.2

## Task Fill blank: measured cytotoxicity at 70.5 h of the molecule COC(=O)c1sccc1S(=O)(=O)N1CCC(Oc2cccnn2)CC1 is ____.
## Result -3.46

## Task Fill blank: measured cytotoxicity at 70.5 h of the molecule Cn1cc(CN2CCCN(CCCc3ccccc3)CC2)cn1 is ____.
## Result -15.4

## Task Fill blank: measured cytotoxicity at 70.5 h of the molecule CNC(=O)C1Cc2ccccc2CN1CCCc1ccccc1 (stereo not drawn) is ____.
## Result -4.46

## Task Fill blank: measured cytotoxicity at 70.5 h of the molecule COc1ccc(CC(=O)NC2CCN(CC(F)F)CC2)cc1OC is ____.
## Result 0.793

## Task Fill blank: measured cytotoxicity at 70.5 h of the molecule COc1ccccc1N1CCC(CNCc2cccc(O)c2)C1 (stereo not drawn) is ____.
## Result 8.44
